- SYSTEM UNDER TEST: T1, EsCas13d, nuclease-dead (Eubacterium siraeum, UniProt B0MS50, R295A;H300A;R849A;H854A)
- T1 sequence: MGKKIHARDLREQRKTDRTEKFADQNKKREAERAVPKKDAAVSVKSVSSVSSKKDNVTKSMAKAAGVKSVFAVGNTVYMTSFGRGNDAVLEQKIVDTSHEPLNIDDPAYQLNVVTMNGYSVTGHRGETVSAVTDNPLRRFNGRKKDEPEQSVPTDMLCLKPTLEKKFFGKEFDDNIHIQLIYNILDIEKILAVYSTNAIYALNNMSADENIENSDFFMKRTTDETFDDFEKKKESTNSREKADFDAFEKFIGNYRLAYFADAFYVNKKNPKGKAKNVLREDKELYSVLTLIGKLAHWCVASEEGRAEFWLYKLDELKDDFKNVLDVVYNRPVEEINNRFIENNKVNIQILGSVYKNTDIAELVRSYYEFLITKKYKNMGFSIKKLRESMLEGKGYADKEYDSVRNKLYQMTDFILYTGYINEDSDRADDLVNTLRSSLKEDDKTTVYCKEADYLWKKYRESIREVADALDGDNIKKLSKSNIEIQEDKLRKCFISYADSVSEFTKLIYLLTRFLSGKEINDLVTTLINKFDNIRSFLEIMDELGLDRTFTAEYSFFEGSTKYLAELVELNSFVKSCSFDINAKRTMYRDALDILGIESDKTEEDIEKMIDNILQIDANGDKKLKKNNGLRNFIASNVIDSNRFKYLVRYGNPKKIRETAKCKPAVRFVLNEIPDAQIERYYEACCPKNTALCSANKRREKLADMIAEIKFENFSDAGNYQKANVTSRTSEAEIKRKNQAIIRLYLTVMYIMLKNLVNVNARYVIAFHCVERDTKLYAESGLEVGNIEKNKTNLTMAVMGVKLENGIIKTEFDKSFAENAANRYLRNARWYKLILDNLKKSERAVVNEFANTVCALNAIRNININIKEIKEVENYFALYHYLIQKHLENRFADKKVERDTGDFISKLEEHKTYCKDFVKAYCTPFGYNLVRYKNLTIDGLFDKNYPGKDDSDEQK
- PROTOCOL SUMMARY: crRNA (strand 1, pre-loaded); Mg2+; 40 mM Tris-HCl pH 7.5, 150 mM NaCl, 6 mM MgCl2, 1 mM DTT, 0.1% Tween-20, 0.2 mg/ml BSA; 25 C; 10 min per concentration, then washed
- SETTINGS: tags: His6-TwinStrep-SUMO cleaved; N-terminal SNAP kept (SNAP-Surface 488); label: 3' end held by stalled T7 RNA polymerase
pKd: −log10 of the molar value.
Reported pKd values for the following binders.

{"BINDER": "target 1 del3,del7 (mixed) RNA 1: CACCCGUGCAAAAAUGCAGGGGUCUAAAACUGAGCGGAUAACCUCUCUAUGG RNA 2: GGGAAUGGAUCCACAUCUACGAAUUCGUACCAUAGAGAGGUUAUCGCCACCGAGAUCGGAAGAGCACACGU", "pKd": 8.31}
{"BINDER": "target 1 insG 3' of 4,insA 3' of 2 (mixed) RNA 1: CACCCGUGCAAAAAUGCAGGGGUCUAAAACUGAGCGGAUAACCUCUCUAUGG RNA 2: GGGAAUGGAUCCACAUCUACGAAUUCGUACCAUAGAGAGGUUAUCCGCGUCAACCGAGAUCGGAAGAGCACACGU", "pKd": 8.27}
{"BINDER": "target 2 MT 5'PFS AAG 3'PFS CCG (mixed) RNA 1: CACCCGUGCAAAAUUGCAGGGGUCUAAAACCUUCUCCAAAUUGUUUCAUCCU RNA 2: GGGAAUGGAUCCACAUCUACGAAUUCAAGAGGAUGAAACAAUUUGGAGAAGCCGAGAUCGGAAGAGCACACGU", "pKd": 8.20}
{"BINDER": "target 3 insG 3' of 22,insG 3' of 2 (mixed) RNA 1: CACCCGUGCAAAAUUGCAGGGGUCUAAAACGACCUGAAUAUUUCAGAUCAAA RNA 2: GGGAAUGGAUCCACAUCUACGAAUUCGUUUGUUGAUCUGAAAUAUUCAGGUGCUGCAGAUCGGAAGAGCACACGU", "pKd": 7.21}
{"BINDER": "target 1 A1C,U10C (mixed) RNA 1: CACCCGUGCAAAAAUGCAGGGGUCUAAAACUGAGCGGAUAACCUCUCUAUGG RNA 2: GGGAAUGGAUCCACAUCUACGAAUUCGUACCAUAGAGAGGUCAUCCGCUCCCCGAGAUCGGAAGAGCACACGU", "pKd": 7.65}
{"BINDER": "target 1 C7U,A9C (mixed) RNA 1: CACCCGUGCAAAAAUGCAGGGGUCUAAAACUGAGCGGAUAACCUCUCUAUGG RNA 2: GGGAAUGGAUCCACAUCUACGAAUUCGUACCAUAGAGAGGUUCUUCGCUCACCGAGAUCGGAAGAGCACACGU", "pKd": 8.05}
{"BINDER": "target 1 C4G,G5U (mixed) RNA 1: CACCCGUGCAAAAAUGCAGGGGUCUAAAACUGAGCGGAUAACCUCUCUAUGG RNA 2: GGGAAUGGAUCCACAUCUACGAAUUCGUACCAUAGAGAGGUUAUCCUGUCACCGAGAUCGGAAGAGCACACGU", "pKd": 7.47}
{"BINDER": "target 1 G5A,A14C (mixed) RNA 1: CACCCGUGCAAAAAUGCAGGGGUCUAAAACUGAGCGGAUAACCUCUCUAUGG RNA 2: GGGAAUGGAUCCACAUCUACGAAUUCGUACCAUAGAGCGGUUAUCCACUCACCGAGAUCGGAAGAGCACACGU", "pKd": 7.09}
{"BINDER": "target 1 G12U,C22G (mixed) RNA 1: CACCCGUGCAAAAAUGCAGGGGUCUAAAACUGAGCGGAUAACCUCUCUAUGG RNA 2: GGGAAUGGAUCCACAUCUACGAAUUCGUAGCAUAGAGAGUUUAUCCGCUCACCGAGAUCGGAAGAGCACACGU", "pKd": 7.38}
{"BINDER": "target 1 insU 3' of 21,insC 3' of 5 (mixed) RNA 1: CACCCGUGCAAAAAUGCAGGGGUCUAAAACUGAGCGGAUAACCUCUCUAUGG RNA 2: GGGAAUGGAUCCACAUCUACGAAUUCGUACCUAUAGAGAGGUUAUCCGCCUCACCGAGAUCGGAAGAGCACACGU", "pKd": 7.30}
{"BINDER": "target 1 del7,del11 (mixed) RNA 1: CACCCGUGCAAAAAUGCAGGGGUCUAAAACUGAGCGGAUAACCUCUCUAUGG RNA 2: GGGAAUGGAUCCACAUCUACGAAUUCGUACCAUAGAGAGGUAUCGCUCACCGAGAUCGGAAGAGCACACGU", "pKd": 7.81}
{"BINDER": "target 1 A1U,U10G (mixed) RNA 1: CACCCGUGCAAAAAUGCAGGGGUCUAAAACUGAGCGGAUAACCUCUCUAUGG RNA 2: GGGAAUGGAUCCACAUCUACGAAUUCGUACCAUAGAGAGGUGAUCCGCUCUCCGAGAUCGGAAGAGCACACGU", "pKd": 7.58}
{"BINDER": "target 1 insA 3' of 13,insC 3' of 8 (mixed) RNA 1: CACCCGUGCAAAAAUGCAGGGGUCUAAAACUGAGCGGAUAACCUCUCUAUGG RNA 2: GGGAAUGGAUCCACAUCUACGAAUUCGUACCAUAGAGAGAGUUAUCCCGCUCACCGAGAUCGGAAGAGCACACGU", "pKd": 8.19}
{"BINDER": "target 1 del5,del13 (mixed) RNA 1: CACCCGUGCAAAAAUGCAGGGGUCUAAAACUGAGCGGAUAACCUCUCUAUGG RNA 2: GGGAAUGGAUCCACAUCUACGAAUUCGUACCAUAGAGAGUUAUCCCUCACCGAGAUCGGAAGAGCACACGU", "pKd": 7.94}
